System: PDC-DUC18828
TEST SUMMARY: cell viability of compound + 1 nM pemigatinib relative to pemigatinib-only (DMSO) wells (fraction); PDC-DUC18828 is a patient-derived cholangiocarcinoma cell line; higher = less growth inhibition
EXPERIMENTAL PARAMETERS: first compound 1 µM; pemigatinib concentration 1 nM; 72 h
Whole data set: some 1,900 compounds, median “cell viability of compound + 1 nM pemigatinib relative to pemigatinib-only (DMSO) wells” near 0.95 nM, cut for the lowest 2% near 0.22 nM. Only a selection was taken, and the lowest values are over-represented in it overall.
QUANTITY: cell viability

[[record]]
molecule = "CN1[C@@H]2CC[C@H]1C[C@@H](OC(=O)C(CO)c1ccccc1)C2 (stereo partly drawn) [Atropine] + CCN1C(=O)N(c2c(F)c(OC)cc(OC)c2F)Cc2cnc3[nH]c(CN4CCOCC4)cc3c21"
readout_value = 0.994

[[record]]
molecule = "COc1cc(-n2c(=S)[nH]c3ccccc3c2=O)c(Cl)cc1Cl [Mdivi-1] + CCN1C(=O)N(c2c(F)c(OC)cc(OC)c2F)Cc2cnc3[nH]c(CN4CCOCC4)cc3c21"
readout_value = 0.952

[[record]]
molecule = "C[C@]12CC[C@H](O)C[C@@H]1CC[C@@H]1[C@@H]2CC[C@]2(C)C(=O)CC[C@@H]12 [Epiandrosterone] + CCN1C(=O)N(c2c(F)c(OC)cc(OC)c2F)Cc2cnc3[nH]c(CN4CCOCC4)cc3c21"
readout_value = 0.972

